src = ChEMBL document CHEMBL3616364

- methodNotes: physchem
- assaySetup: PBS
Starred links: 1 amine or outer side, 2 acyl side, 3 side chain; linkers in the order of their positions; H or OH if unused. Non-standard residues stand in square brackets, D forms with d. Residues, ends and D or L forms follow the SMILES beside them. Ile(ψThz) = CC[C@H](C)[C@H](N[*:1])c1nc(C(=O)[*:2])cs1; LeuThz(4-CO) = CC(C)C[C@H](N[*:1])c1nc(C(=O)[*:2])cs1; ValThz = CC(C)[C@H](N[*:1])c1nc(C(=O)[*:2])cs1
outcomeMeasure: solubility thermodynamic at 48 h (µM)

1. CC[C@H](C)[C@@H]1NC(=O)[C@@H]2CCCN2C(=O)[C@H](Cc2ccccc2)NC(=O)[C@H](C)NC(=O)c2csc(n2)[C@H](CC(C)C)NC(=O)[C@@H]2CCCN2C1=O (cyclo(AFPIP[LeuThz(4-CO)]))    35
2. CC[C@H](C)[C@@H]1NC(=O)[C@@H]2CCCN2C(=O)[C@H](Cc2ccccc2)NC(=O)[C@H](CC(C)C)NC(=O)c2csc(n2)[C@H]([C@@H](C)CC)NC(=O)[C@@H]2CCCN2C1=O (cyclo(FPIP[Ile(ψThz)]L))    10
3. CC[C@H](C)[C@@H]1NC(=O)[C@@H]2CCCN2C(=O)[C@H](Cc2ccccc2)NC(=O)[C@H](C)NC(=O)c2csc(n2)[C@H](C(C)C)NC(=O)[C@@H]2CCCN2C1=O (cyclo(AFPIP[ValThz]))    205
4. CC[C@H](C)[C@@H]1NC(=O)[C@@H]2CCCN2C(=O)[C@H](C(C)C)NC(=O)[C@@H]2CCCN2C(=O)[C@H](Cc2ccccc2)NC(=O)[C@H](C)NC(=O)c2csc1n2 (cyclo(AFPVP[Ile(ψThz)]))    236
